Test system: MDA-MB-231
methodNotes: cells
conditionNotes: Homo sapiens
recordedMetric: IC50 (µM)
API: value field is a number in µM; no unit string.

itemSmiles	IC50, µM
O=C(CCCCCCC(=O)Nc1ccccc1)NO	2.14

From here, focus on the item given below.
Reported IC50, molecule CC1(C)C(=O)N(c2ccc(C#N)c(C(F)(F)F)c2)C(=O)N1Cc1ccc(-c2cn(CCCCCCC(=O)NO)nn2)cc1 : ____ 1.45

* * *

subjectOfTest: Protein deacetylase HDAC6 (Homo sapiens)
Sequence (Q9UBN7 whole entry): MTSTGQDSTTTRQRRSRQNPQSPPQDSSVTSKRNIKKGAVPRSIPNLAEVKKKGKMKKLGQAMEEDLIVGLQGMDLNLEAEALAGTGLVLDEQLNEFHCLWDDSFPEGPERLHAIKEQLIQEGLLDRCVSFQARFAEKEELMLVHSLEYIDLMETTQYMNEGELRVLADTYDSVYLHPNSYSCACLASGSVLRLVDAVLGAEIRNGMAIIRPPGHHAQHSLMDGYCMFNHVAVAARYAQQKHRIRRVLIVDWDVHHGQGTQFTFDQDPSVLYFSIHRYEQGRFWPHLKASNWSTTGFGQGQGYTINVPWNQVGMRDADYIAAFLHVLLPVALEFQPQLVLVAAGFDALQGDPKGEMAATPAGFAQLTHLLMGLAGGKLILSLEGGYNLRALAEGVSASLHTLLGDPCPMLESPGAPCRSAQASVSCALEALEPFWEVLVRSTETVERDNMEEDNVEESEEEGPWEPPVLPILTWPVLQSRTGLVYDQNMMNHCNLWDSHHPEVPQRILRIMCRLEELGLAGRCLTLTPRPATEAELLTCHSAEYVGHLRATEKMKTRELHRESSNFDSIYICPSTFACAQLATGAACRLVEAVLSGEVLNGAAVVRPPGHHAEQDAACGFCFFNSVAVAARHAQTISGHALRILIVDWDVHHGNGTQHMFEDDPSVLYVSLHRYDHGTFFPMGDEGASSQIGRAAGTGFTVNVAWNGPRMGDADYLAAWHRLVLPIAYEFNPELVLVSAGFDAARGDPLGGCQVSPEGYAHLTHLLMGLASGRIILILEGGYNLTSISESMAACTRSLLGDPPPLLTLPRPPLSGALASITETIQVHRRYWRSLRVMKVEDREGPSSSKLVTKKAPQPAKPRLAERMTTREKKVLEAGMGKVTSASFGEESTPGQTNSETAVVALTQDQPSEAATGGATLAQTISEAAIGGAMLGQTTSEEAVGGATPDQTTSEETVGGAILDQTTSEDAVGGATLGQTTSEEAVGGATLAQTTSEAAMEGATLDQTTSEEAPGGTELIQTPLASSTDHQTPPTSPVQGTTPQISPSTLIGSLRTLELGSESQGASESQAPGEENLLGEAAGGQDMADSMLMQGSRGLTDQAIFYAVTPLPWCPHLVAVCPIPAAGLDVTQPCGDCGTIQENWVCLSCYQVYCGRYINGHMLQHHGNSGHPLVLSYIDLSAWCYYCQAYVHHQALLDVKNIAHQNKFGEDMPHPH
methodNotes: Inhibition of recombinant human His-tagged HDAC6 expressed in baculovirus infected insect cells using Fluor-de-lys as substrate measured after 60 mins by fluorescence assay
recordedMetric: IC50

Item under review: CCn1cnc(-c2ccccc2)c1-c1ccc(/C=C/C(=O)NO)cc1 . Reported IC50? 107 nM
